assay: NCI Yeast Anticancer Drug Screen. Data for the rad50 strain (AID 155);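 note: 0% = growth of vehicle-only cultures of the same strain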; settings: S. cerevisiae rad50 strain growth inhibition; at 50.0 µM; hits give high values
About 79,000 compounds went through this panel and 15% of them were active in at least one assay; those are over-represented in the sample as a whole.
assay-metric: growth inhibition (%)

{"columns": ["compound", "assay-metric", "unit-info", "number"],
 "data": [
  ["Nc1ccc(S(=O)(=O)NC(=O)c2ccccc2)cc1", "growth inhibition", "%", 12.8],
  ["CC(=O)OCC1OC(n2cc(CBr)nn2)C(OC(C)=O)C(OC(C)=O)C1OC(C)=O (stereo unspecified)", "growth inhibition", "%", 0.3],
  ["O=C1CN(/N=C/c2ccc(-c3cccc(C(F)(F)F)c3)o2)C(=O)N1", "growth inhibition", "%", 36.4],
  ["ClCc1nnc(-c2ccccc2)o1", "growth inhibition", "%", 14.8],
  ["CCC(C)(C)c1ccccc1", "growth inhibition", "%", 13.2],
  ["N#C/C(=C\\c1ccccc1)c1cccc(Cl)c1", "growth inhibition", "%", -32.2],
  ["Cc1nc2nn[nH]n2c(=O)c1CCO", "growth inhibition", "%", 13.2],
  ["O=C1C2=Cc3ccccc3CCN2c2ccc([N+](=O)[O-])cc21", "growth inhibition", "%", -28.9],
  ["CC(C)(C)N[P+](Cc1ccc(C[P+](NC(C)(C)C)(NC(C)(C)C)c2ccccc2)cc1)(NC(C)(C)C)c1ccccc1", "growth inhibition", "%", -3.05],
  ["CCCCn1c(=S)sc2ccccc21", "growth inhibition", "%", 15.2],
  ["CC1=C(C(=O)NNC(=O)c2ccccc2)CC(C(=O)NNC(=O)c2ccccc2)=C(C)N1", "growth inhibition", "%", -24.3]
]}

---

// values below are reported growth inhibition
assay: NCI Yeast Anticancer Drug Screen. Data for the mlh1 rad18 strain (AID 175); conditions: S. cerevisiae mlh1 rad18 strain growth inhibition; at 50.0 µM; hits give high values
About 79,000 compounds went through this panel and 15% of them were active in at least one assay; those are over-represented in the sample as a whole.
assay-metric: growth inhibition (%)

{"columns": ["structure-smiles", "assay-metric", "number"],
 "data": [
  ["CCC/C=N/NC(=O)c1ccc(OC)cc1", "growth inhibition", -4.7],
  ["CN(C)Cc1c(-c2ccc(Br)cc2)oc(-c2ccc(Br)cc2)c1Br", "growth inhibition", 7.2],
  ["Cc1ccc(S(=O)(=O)Oc2nc3ccccc3nc2N(S(=O)(=O)c2ccc(C)cc2)S(=O)(=O)c2ccc(C)cc2)cc1", "growth inhibition", 17.7],
  ["C/C(=N/Nc1ccc([N+](=O)[O-])cc1[N+](=O)[O-])c1ccc(Sc2ccc(/C(C)=N/Nc3ccc([N+](=O)[O-])cc3[N+](=O)[O-])cc2)cc1", "growth inhibition", -23.4]
]}

---

assay: NCI Yeast Anticancer Drug Screen. Data for the cln2 rad14 strain (AID 165);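 note: 0% = growth equal to vehicle treated cultures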; conditions: S. cerevisiae cln2 rad14 strain, at 50.0 µM, hits give high values
The panel holds about 79,000 compounds, 15% with a hit somewhere; the sample as a whole holds those more often.
# growth inhibition annotations
assay-metric: growth inhibition (%)

{"columns": ["molecule", "number"],
 "data": [
  ["NNc1ncnc2c(C3OC(CO)C(O)C3O)[nH]nc12 (centres undefined)", -70.3],
  ["CC12CCC/C(=N\\NC(N)=S)C1C(=O)NC(=O)C2 (centres undefined)", 33],
  ["CN1CCc2c1nc(-c1ccc([N+](=O)[O-])cc1)c1c2N(C)CC1", 6.85],
  ["NC1CCCCC1N.O=S(=O)([O-])CCCNC1CCCCC1.O=S(=O)([O-])CCCNC1CCCCC1.[Pt+4]", -23.6],
  ["BrC12c3ccccc3C(Br)(c3ccccc31)c1ccccc12", -7.4],
  ["COc1ccc(-c2c(C(C)=O)c(C)n(C3OC(CO)C(O)C(O)C3O)c(=S)c2C#N)cc1 (centres undefined)", 34],
  ["Cc1cc2ncn(C3CCCCO3)c2cc1C (centres undefined)", 13.3],
  ["CC(=O)N1c2cc(N=NN(C)C)ccc2NC(=O)CC1C (centres undefined)", 0.65],
  ["O=c1c2c3c(sc2nc2n1N=CN(c1ccc(Cl)cc1)C2)CCCC3", -5.45],
  ["OC(C#Cc1ccccc1)(C#Cc1ccccc1)/C=C/c1ccccc1", -7.95],
  ["NC(=S)NNC(=O)/C(=C/c1ccc(/C=C(\\NC(=O)c2ccccc2)C(=O)NNC(N)=S)cc1)NC(=O)c1ccccc1", 39.8],
  ["CCOC1(NC(=O)N(C)C)C2CCCC21 (centres undefined)", -29.9],
  ["CC1(C)Cc2cccc(OC(=O)NO)c2O1", -37.8],
  ["CC1(C)C2C=CC1(C)C1(CC2)OCCO1 (centres undefined)", 20.8],
  ["CC12CC(C/C1=N/O)C(C)(C)C2 (centres undefined)", 15.7],
  ["O=Cc1ccc(C=O)cc1", 11.9],
  ["CCCn1c(C)nc2cc(C)cc(N)c21", -17.4],
  ["N#C[C@H]1CC2C=CC1C2 (some centres undefined)", 8.2],
  ["O=C1CN(C2CCCCC2)CC(=O)N2C(c3ccccc3)CCCN12 (centres undefined)", 11.8],
  ["Cc1cc2n(n1)C(=O)CC(=O)C2", -24.4],
  ["C=CCN1C(SC)=NC(=O)C1(c1ccccc1)c1ccccc1", -10.2],
  ["COC(=O)C1Cc2cc(OC)c(OC)cc2C(c2ccc(OC)c(OC)c2)C1C(N)=O (centres undefined)", 0.25],
  ["COc1ccc([Se][Se]c2ccc(OC)cc2NC(C)=O)c(NC(C)=O)c1", 16.1],
  ["Cc1cc(Cc2c(F)c(F)c(Cc3cc(C)no3)c(F)c2F)on1", 1.1]
]}

---

assay: NCI Yeast Anticancer Drug Screen. Data for the bub3 strain (AID 167); settings: S. cerevisiae bub3 mutant strain, at 50.0 µM
Compounds without any hit were thinned out: in the full panel of roughly 79,000, 15% have a hit. Activity calls are given as the source filed them. Cut-off read from the data, not from the text of the source: active = growth inhibition above about 70%; inactive = the rest.
Labels: active, inactive

{"columns": ["compound", "class-label"],
 "data": [
  ["CCOP(=O)(OCC)/C(C#N)=C/c1ccc(N(C)C)cc1", "inactive"],
  ["COC(=O)N1CCC(Sc2ccccc2)C2(CCSc3ccccc3)CCC=C12 (stereo not given)", "inactive"],
  ["O=C(CNc1ccc(Cl)cc1Cl)NC1C=Cc2ccc(S(=O)(=O)Nc3ccc(Cl)cc3Cl)cc2C1=O (stereo not given)", "inactive"],
  ["C=C(Cl)/C(=C\\Cl)CCC(Cl)C(C)C (stereo not given) (tested in a mixture with another compound)", "active"],
  ["O=C(Nc1ccccc1)c1cc([N+](=O)[O-])cc([N+](=O)[O-])c1", "inactive"],
  ["O=C(O)C1CCCCN1C(=O)c1ccccc1 (stereo not given)", "inactive"],
  ["CC12CCC(C(S(=O)(=O)O)C1=O)C2(C)C (stereo not given) (tested in a mixture with another compound)", "inactive"],
  ["CCCCCCCCCCCCCCCCSS(=O)(=O)O", "inactive"],
  ["CCOC(=O)c1cnc(SC)nc1Nc1ccc(Cl)cc1", "inactive"],
  ["CSC(=S)n1nc(C)c(N=Nc2ccccc2[N+](=O)[O-])c1C", "inactive"]
]}

---

assay: NCI Yeast Anticancer Drug Screen. Data for the mlh1 rad18 strain (AID 175); settings: S. cerevisiae mlh1 rad18 strain growth inhibition; at 50.0 µM
About 79,000 compounds went through this panel and 15% of them were active in at least one assay; those are over-represented in the sample as a whole. The source made the active and inactive calls. No stated cut-off is given here; in the data, active means growth inhibition above about 70%; inactive means the rest.
Classes used: true (active), false (inactive)

{"columns": ["compound", "class-label"],
 "data": [
  ["C/C(N=NC(=S)N1CCC(C)CC1)=C1\\C=CC=CN1O", "true"],
  ["O=c1ccn(-c2ccccn2)c(=O)n1-c1ccccn1", "false"],
  ["ON=C(c1ccccc1)c1ccccc1", "false"],
  ["Clc1ccc(C(=C=C(c2ccccc2)c2ccccc2)c2ccc(Cl)cc2)cc1", "false"],
  ["COc1cc(CNc2nc3ccccc3nc2C(=O)O)cc(OC)c1OC", "false"],
  ["C=Cc1ccc(C)[n+](C[Si](C)(C)O[Si](C)(C)C[n+]2cc(C=C)ccc2C)c1", "false"],
  ["CCc1c2c(nc3ccc(O)cc13)-c1cc3c(c(=O)n1C2)COC(=O)[C@]3(O)CC", "false"],
  ["Nc1nc2c(nnn2-c2ccc(Cl)cc2)c(=O)[nH]1", "false"],
  ["C=CCc1cc(C(=O)C(=O)c2cc(CC=C)c(OC(C)=O)c(OC)c2)cc(OC)c1OC(C)=O", "false"],
  ["[Cl][Pt+2][Cl].[NH-]C1CCCCC1C1CCCCC1[NH-] (stereo unspecified)", "false"],
  ["COC1(OC)C2(Cl)C(Cl)=C(Cl)C1(Cl)C1C=CC=CC12 (stereo unspecified)", "false"]
]}
